Consider the following compounds; for each one, report its pIC50.
Structures can show the parent of a compound that is named as a salt.
Units for pIC50: none; it is -log10 of a concentration expressed in mol/L.

pIC50 for human FGFR1 (Homo sapiens (Human), UniProt P11362) with input Cn1cc(-c2ccn3c(-c4cc(NS(=O)(=O)C5CC5)nc(-c5ccc(F)cc5F)c4)cnc3c2)cn1 [Trifluoroacetate salt of compound 1] equals 8.34

So the reported pIC50 for Cn1cc(-c2ccn3c(-c4cc(NS(C)(=O)=O)cc(-c5ccc(F)cc5F)n4)cnc3c2)cn1 [Formate of compound C, reference compound] , on human FGFR1 (Homo sapiens (Human), UniProt P11362), turned out to be 6.14

Reported human FGFR1 (Homo sapiens (Human), UniProt P11362) pIC50 for item Cn1cc(-c2ccc3c(c2)ncn3-c2cc(NS(=O)(=O)C3CC3)cc(-c3ccc(F)cc3F)c2)cn1 [Trifluoroacetate of compound A, reference compound] was 7.65
